Please go through the items and note down their inhibition of SARS-CoV-2 cytopathic effect.
System: Vero E6 infected with SARS-CoV-2
Assay: inhibition of SARS-CoV-2 cytopathic effect; higher = more antiviral protection, active = above 15
Conditions: 833.33 nM; 48 h
Numbers only; they are read as %.

Output measured inhibition of SARS-CoV-2 cytopathic effect for this item: C=C1C(=O)O[C@@H]2[C@H]3C(C)=CC[C@@]34O[C@@]4(C)CC[C@@H]12 [arglabin]
-1.74

Output measured inhibition of SARS-CoV-2 cytopathic effect for this item: CC(C)(C)c1ccc(/C=C/C(=O)Nc2ccc3c(c2)OCCO3)cc1
-0.32

Output measured inhibition of SARS-CoV-2 cytopathic effect for this item: CN[C@@H]1[C@@H](O)[C@@H](O[C@@H]2[C@@H](O)[C@H](O[C@H]3O[C@H](CN)[C@@H](O)[C@H](O)[C@H]3O)[C@@H](N)C[C@H]2NC(=O)[C@@H](O)CN)OC[C@]1(C)O [isepamicin]
-1.29

Output measured inhibition of SARS-CoV-2 cytopathic effect for this item: C[C@H](N[C@@H](CCc1ccccc1)C(=O)O)C(=O)N1Cc2ccccc2C[C@H]1C(=O)O [quinaprilat]
-0.25

Output measured inhibition of SARS-CoV-2 cytopathic effect for this item: CC(C)Nc1cc(-c2c[nH]c(C(=O)N[C@H](CO)c3cccc(Cl)c3)c2)c(Cl)cn1
-5.21

Output measured inhibition of SARS-CoV-2 cytopathic effect for this item: O=c1c(O)c(-c2ccc(O)cc2)oc2cc(O)cc(O)c12 [kaempferol]
1.56

Output measured inhibition of SARS-CoV-2 cytopathic effect for this item: Oc1ccc(-c2nc3cc(O)cc(Br)c3o2)cc1
4.89

Output measured inhibition of SARS-CoV-2 cytopathic effect for this item: COc1ccc(CNC(=O)Nc2ncc([N+](=O)[O-])s2)cc1
-1.47

Output measured inhibition of SARS-CoV-2 cytopathic effect for this item: Nc1nc2ccc(OC(F)(F)F)cc2s1 [riluzole]
3.82

Output measured inhibition of SARS-CoV-2 cytopathic effect for this item: CCCCCCCCCCCCCCCC(=O)OC[C@H](COP(=O)([O-])OCC[N+](C)(C)C)OC(=O)CCCCCCCCCCCCCCC [colfosceril-palmitate]
-6.54

Output measured inhibition of SARS-CoV-2 cytopathic effect for this item: C[C@@H](N)[C@H]1CC[C@H](C(=O)Nc2ccncc2)CC1
2.02

Output measured inhibition of SARS-CoV-2 cytopathic effect for this item: CC(C)(CO)Cc1cc(C(C)(C)C)c(O)c(C(C)(C)C)c1
4.34

Output measured inhibition of SARS-CoV-2 cytopathic effect for this item: CS(=O)(=O)Nc1ccc(-c2coc3cc(OCc4cccc(C(=O)O)c4)ccc3c2=O)cc1
-0.83

Output measured inhibition of SARS-CoV-2 cytopathic effect for this item: CN1CC[C@H](c2c(O)cc(O)c3c(=O)cc(-c4ccccc4Cl)oc23)[C@H](O)C1 [alvocidib]
-19.4

Output measured inhibition of SARS-CoV-2 cytopathic effect for this item: CCc1c(C(=O)NCCc2ccc(N3CCCCC3)cc2)[nH]c2ccc(Cl)cc12
2.28

Output measured inhibition of SARS-CoV-2 cytopathic effect for this item: COC(=O)[C@H](Cc1ccccc1)NC(=O)[C@@H](N)CC(=O)O [aspartame]
-1.78

Output measured inhibition of SARS-CoV-2 cytopathic effect for this item: C=CC(=O)Nc1cc(Nc2nccc(-c3cn(C)c4ccccc34)n2)c(OC)cc1N(C)CCN(C)C [osimertinib]
-10.8

Output measured inhibition of SARS-CoV-2 cytopathic effect for this item: CC[C@@H](Nc1c(Nc2cccc(C(=O)N(C)C)c2O)c(=O)c1=O)c1ccc(C)o1 [navarixin]
1.8

Output measured inhibition of SARS-CoV-2 cytopathic effect for this item: O=C(C[S+]([O-])C(c1ccccc1)c1ccccc1)NO (centres undefined) [adrafinil]
1.58

Output measured inhibition of SARS-CoV-2 cytopathic effect for this item: O=C(O)CC(S)C(=O)O (centres undefined) [mercaptosuccinic-acid]
3.72

Output measured inhibition of SARS-CoV-2 cytopathic effect for this item: CON(C)C(=O)N1N=C(c2cc(F)ccc2F)S[C@@]1(CCCN)c1ccccc1 [filanesib]
-0.01

Output measured inhibition of SARS-CoV-2 cytopathic effect for this item: CC[C@H]1OC(=O)C[C@@H](O)[C@H](C)[C@@H](O[C@@H]2O[C@H](C)[C@@H](O[C@H]3C[C@@](C)(O)[C@@H](O)[C@H](C)O3)[C@H](N(C)C)[C@H]2O)[C@@H](CC=O)C[C@@H](C)C(=O)/C=C/C(C)=C/[C@@H]1CO[C@@H]1O[C@H](C)[C@@H](O)[C@@H](OC)[C@H]1OC
-0.46

Output measured inhibition of SARS-CoV-2 cytopathic effect for this item: O=c1[nH]c(=O)n([C@H]2CCCO2)cc1F (racemic) [ftorafur]
-0.34

Output measured inhibition of SARS-CoV-2 cytopathic effect for this item: Cc1cc(C)c(S(=O)(=O)Nc2ccccc2C(F)(F)F)c(C)c1
2.55

Output measured inhibition of SARS-CoV-2 cytopathic effect for this item: Clc1ccc(C(Cn2ccnc2)OCc2ccc(Sc3ccccc3)cc2)c(Cl)c1 (centres undefined) [fenticonazole]
0.19

Output measured inhibition of SARS-CoV-2 cytopathic effect for this item: O=C(NCCCN1CCCCCC1)C(c1ccccc1)C1CCCCC1 (centres undefined)
-2.41

Output measured inhibition of SARS-CoV-2 cytopathic effect for this item: CC(=O)N1N=C(c2ccc(N)cc2)c2cc3c(cc2C[C@H]1C)OCO3 [talampanel]
1.19

Output measured inhibition of SARS-CoV-2 cytopathic effect for this item: O=c1[nH]cnc2c1ncn2[C@H]1CC[C@@H](CO)O1 [didanosine]
3.97

Output measured inhibition of SARS-CoV-2 cytopathic effect for this item: FC(F)(F)C(F)(F)C(F)(F)N(C(F)(F)C(F)(F)C(F)(F)F)C(F)(F)C(F)(F)C(F)(F)F [perfluamine]
-3.78

Output measured inhibition of SARS-CoV-2 cytopathic effect for this item: Cc1oc(=O)oc1COC(=O)C1=C([C@H]2CCCO2)S[C@@H]2[C@@H]([C@@H](C)O)C(=O)N12 [faropenem-medoxomil]
2.96

Output measured inhibition of SARS-CoV-2 cytopathic effect for this item: CC(C)COC(=O)c1ccc(N)cc1 [isobutamben]
-2.97

Output measured inhibition of SARS-CoV-2 cytopathic effect for this item: COc1c(OCCCN2CCOCC2)ccc2c1N=C(NC(=O)c1cnc(N)nc1)N1CCN=C21 [copanlisib]
-5.18

Output measured inhibition of SARS-CoV-2 cytopathic effect for this item: Cc1ncc(CN2CC=C(c3ccccc3)CC2)c(N)n1
0.15

Output measured inhibition of SARS-CoV-2 cytopathic effect for this item: COc1ccc2c(c1)[C@]13CCCC[C@@H]1[C@H](C2)N(C)CC3 [dextromethorphan]
0.81

* * *

Test system: Vero E6 infected with SARS-CoV-2
Test: inhibition of SARS-CoV-2 cytopathic effect; higher = more antiviral protection, active = above 15
Details: 10000 nM; 48 h
readoutLabel: inhibition of SARS-CoV-2 cytopathic effect (%)
Numbers only; they are read as %.

For Vero E6 infected with SARS-CoV-2, give the measured inhibition of SARS-CoV-2 cytopathic effect of the entry CCn1nc(C(=O)O)c(=O)c2cc3c(cc21)OCO3
-1.09

For Vero E6 infected with SARS-CoV-2, give the measured inhibition of SARS-CoV-2 cytopathic effect of the entry O=C([O-])C(O)[C@H](O)[C@@H](O)[C@H](O)[C@H](O)CO.O=C([O-])C(O)[C@H](O)[C@@H](O)[C@H](O)[C@H](O)CO.[Ca+2] (some centres undefined) [calcium-gluceptate]
-3.66

For Vero E6 infected with SARS-CoV-2, give the measured inhibition of SARS-CoV-2 cytopathic effect of the entry C#Cc1cccc(Nc2ncnc3cc4c(cc23)OCCOCCOCCO4)c1
-5.92

For Vero E6 infected with SARS-CoV-2, give the measured inhibition of SARS-CoV-2 cytopathic effect of the entry Cn1c(=O)c2c(ncn2CC2OCCO2)n(C)c1=O
-0.77

For Vero E6 infected with SARS-CoV-2, give the measured inhibition of SARS-CoV-2 cytopathic effect of the entry CCc1cccc(CC)c1NC(=O)N1Cc2[nH]nc(NC(=O)c3ccc(N4CCN(C)CC4)cc3)c2C1
-0.02

For Vero E6 infected with SARS-CoV-2, give the measured inhibition of SARS-CoV-2 cytopathic effect of the entry CCOc1cc2ncc(C#N)c(Nc3ccc(F)c(Cl)c3)c2cc1NC(=O)/C=C/CN(C)C
2.95

For Vero E6 infected with SARS-CoV-2, give the measured inhibition of SARS-CoV-2 cytopathic effect of the entry Cn1nnc(-c2ccc(-c3ccc(N4C[C@H](CO)OC4=O)cc3F)cn2)n1
-0.79

For Vero E6 infected with SARS-CoV-2, give the measured inhibition of SARS-CoV-2 cytopathic effect of the entry CCn1c2ccccc2c2cc(CNC)ccc21
-3.22

For Vero E6 infected with SARS-CoV-2, give the measured inhibition of SARS-CoV-2 cytopathic effect of the entry CCCN(C/C=C/I)[C@H]1CCc2ccc(O)cc2C1 [7-hydroxy-PIPAT]
-1.39

Entry source: the supplement of paper PMC13380429
